Quick reference for Plant response rating, Corn among some compounds
- Test system: corn
- Protocol summary: Test B preemergence/postemergence greenhouse plant response rating 0 to 10
- Type: in vivo, Zea mays
- Run parameters: POSTEMERGENCE, Rate 50 g/ha; 0 to 10 scale
Lab note: record just the number, no unit beside it.

Q. Name the recorded Plant response rating, Corn for `CC(C)Oc1cc(-c2nn3c(c2Br)CCCC3)c(F)cc1Cl` .
A. 4

Q. Name the recorded Plant response rating, Corn for `COCN1C(=O)COc2cc(F)c(-c3nn4c(c3Br)CCCC4)cc21` .
A. 4

* * *

- Test system: ryegrass
- Protocol summary: Test C preemergence/postemergence greenhouse plant response rating 0 to 100
- Assay type: in vivo, Lolium multiflorum
- Run parameters: POSTEMERGENCE; Rate 1 g/ha
Quick reference for Plant response rating (0 to 100), Ryegrass among some molecules
Lab note: record just the number, no unit beside it.

Sample records with Plant response rating (0 to 100), Ryegrass:
C#CCN1C(=O)COc2cc(F)c(-c3nn4c(c3Cl)CCCC4)cc21 [Compound 34] : 10
C=CCN1C(=O)COc2cc(F)c(-c3nn4c(c3Cl)CCCC4)cc21 [Compound 33] : 30
C#CCN1C(=O)COc2cc(F)c(-c3nn4c(c3Br)CCCC4)cc21 [Compound 56] : 20
CCCN1C(=O)COc2cc(F)c(-c3nn4c(c3Cl)CCCC4)cc21 [Compound 32] : 10
CC(C)Oc1cc(-c2nn3c(c2Br)CCCC3)c(F)cc1Cl [Compound 38] : 0
CCN1C(=O)COc2cc(F)c(-c3nn4c(c3Cl)CCCC4)cc21 [Compound 54] : 10

Q. For the record COCN1C(=O)COc2cc(F)c(-c3nn4c(c3Cl)CCCC4)cc21 [Compound 55] , what value of Plant response rating (0 to 100), Ryegrass is listed for ryegrass?
A. 10
